- Assay Target: 3-phosphoinositide-dependent protein kinase 1 (PDK1) (Homo sapiens)
- Construct: gene PDPK1; PH domain, amino-acids 411-552
- Sequence (O15530 411-552): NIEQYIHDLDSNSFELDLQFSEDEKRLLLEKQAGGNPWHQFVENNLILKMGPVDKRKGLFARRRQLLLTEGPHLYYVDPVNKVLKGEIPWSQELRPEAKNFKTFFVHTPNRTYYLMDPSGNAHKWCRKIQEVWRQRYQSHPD
- Test Method Notes: isothermal titration calorimetry with purified recombinant PH domain, […] °C, four experiments, n = […]
- Format: binding
Endpoint: pKd
A value of pKd is the negative decimal logarithm of a concentration given in moles per litre.

Value wanted: pKd (3-phosphoinositide-dependent protein kinase 1 (PDK1) (Homo sapiens)) of entry `O=P(O)(O)O[C@@H]1[C@@H](OP(=O)(O)O)[C@H](OP(=O)(O)O)[C@H](OCc2ccccc2)[C@H](OP(=O)(O)O)[C@H]1OP(=O)(O)O`
6.96
